# assayed_system: UniProtKB Q9JJX7
# Sequence (Q9JJX7 whole entry): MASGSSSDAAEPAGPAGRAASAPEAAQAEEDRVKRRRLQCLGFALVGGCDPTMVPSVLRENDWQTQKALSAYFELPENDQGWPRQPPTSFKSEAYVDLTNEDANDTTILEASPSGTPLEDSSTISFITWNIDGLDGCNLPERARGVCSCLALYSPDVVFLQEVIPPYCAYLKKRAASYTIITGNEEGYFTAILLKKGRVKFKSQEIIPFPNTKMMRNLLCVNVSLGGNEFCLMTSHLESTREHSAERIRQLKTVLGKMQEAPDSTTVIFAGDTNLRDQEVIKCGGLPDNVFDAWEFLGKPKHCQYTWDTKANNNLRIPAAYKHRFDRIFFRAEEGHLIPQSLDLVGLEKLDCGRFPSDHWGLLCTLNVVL
# assay_explanation: Recombinant TDP2 Assay
# condition_summary: pH 7.5

cpd_smiles: N#Cc1ccc2cc3c(=O)[nH]c(=O)nc-3n(-c3ccc(O)cc3)c2c1
IC50: > 111 µM
//
cpd_smiles: O=c1nc2n(-c3ccc(O)cc3)c3cc(Cl)ccc3cc-2c(=O)[nH]1
IC50: > 111 µM

###

# assayed_system: Tyrosyl-DNA phosphodiesterase 2 [E242G,S244A,Q278R,I281T,K282R,R316G,P318T,Y321CH323L] (Mus musculus, UniProt Q9JJX7, E242G/I281T/K282R/P318T/Q278R/R316G/S244A/Y321CH323L)
# assay_explanation: Recombinant TDP2 Assay
# condition_summary: pH 7.5
pIC50: −log10 of the molar value.
The reader will find reported pIC50 values listed item by item below.
experimental_endpoint: pIC50

cpd_smiles: O=c1nc2n(-c3ccc(O)cc3)c3cc(Cl)ccc3cc-2c(=O)[nH]1
value: 5.40
//
cpd_smiles: N#Cc1ccc2cc3c(=O)[nH]c(=O)nc-3n(-c3ccc(O)cc3)c2c1
value: 6.77
